Where do the numbers come from? From patent US9255093B2.

Recorded % change@TL7@10 uM values for a group of molecules are listed next.
Target: hERG (human ether-a-go-go-related gene) potassium channel (Homo sapiens, UniProt Q12809)
Sequence (Q12809 whole entry): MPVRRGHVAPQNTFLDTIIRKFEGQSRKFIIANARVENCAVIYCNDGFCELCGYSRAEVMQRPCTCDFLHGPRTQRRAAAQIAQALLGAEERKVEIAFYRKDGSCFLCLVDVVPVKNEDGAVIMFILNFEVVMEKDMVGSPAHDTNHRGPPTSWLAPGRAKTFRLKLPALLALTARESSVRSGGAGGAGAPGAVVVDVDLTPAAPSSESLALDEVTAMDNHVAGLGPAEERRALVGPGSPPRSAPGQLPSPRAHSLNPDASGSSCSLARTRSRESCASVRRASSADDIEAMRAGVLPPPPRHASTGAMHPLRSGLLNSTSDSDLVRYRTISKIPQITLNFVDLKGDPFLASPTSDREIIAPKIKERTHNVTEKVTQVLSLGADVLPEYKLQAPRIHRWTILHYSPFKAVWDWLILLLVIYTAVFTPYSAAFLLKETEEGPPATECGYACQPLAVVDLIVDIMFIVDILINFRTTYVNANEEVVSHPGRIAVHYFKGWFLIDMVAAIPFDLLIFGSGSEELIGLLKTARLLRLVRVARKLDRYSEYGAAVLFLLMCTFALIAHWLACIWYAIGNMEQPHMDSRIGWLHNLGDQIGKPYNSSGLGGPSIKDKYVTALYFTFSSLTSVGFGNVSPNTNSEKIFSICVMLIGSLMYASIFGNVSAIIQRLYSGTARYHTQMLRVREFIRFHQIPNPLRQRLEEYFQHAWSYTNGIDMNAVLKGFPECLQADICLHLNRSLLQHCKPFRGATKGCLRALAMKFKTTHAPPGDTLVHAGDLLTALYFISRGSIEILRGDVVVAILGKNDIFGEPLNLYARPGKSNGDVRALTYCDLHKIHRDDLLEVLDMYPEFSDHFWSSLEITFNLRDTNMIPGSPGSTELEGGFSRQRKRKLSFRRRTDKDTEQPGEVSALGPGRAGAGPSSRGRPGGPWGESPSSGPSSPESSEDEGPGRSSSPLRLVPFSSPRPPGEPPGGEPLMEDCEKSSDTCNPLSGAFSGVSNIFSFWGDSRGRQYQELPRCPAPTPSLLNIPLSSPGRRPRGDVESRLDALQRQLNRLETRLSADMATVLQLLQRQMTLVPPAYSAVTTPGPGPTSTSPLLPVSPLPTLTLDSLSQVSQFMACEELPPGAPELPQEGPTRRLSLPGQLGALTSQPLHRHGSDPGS
Assay: QPatch automated patch-clamp hERG activator 4-concentration EC50 assay
Conditions: increase of hERG tail current amplitude at 7 second (TL7); 10 uM; hERG stably expressed in CHO cells

{"molecule": "Fc1cc2cc(-c3nnn[nH]3)oc2cc1CNc1ccc(OCC(F)F)c(C(F)(F)F)c1 [Example 162]", "% change@TL7@10 uM [%]": 372}
{"molecule": "FC(F)(F)Oc1ccc(NCc2ccc3cc(-c4nn[nH]n4)oc3c2)cc1Br [Example 37]", "% change@TL7@10 uM [%]": 170}
{"molecule": "Fc1c(CNc2cc(C(F)(F)F)c(Br)c(C(F)(F)F)c2)ccc2oc(-c3nnn[nH]3)cc12 [Example 143]", "% change@TL7@10 uM [%]": 193}
{"molecule": "O=C(O)c1cc2cc(F)c(CNc3ccc(OC(F)(F)F)c(Br)c3)cc2o1 [Example 227]", "% change@TL7@10 uM [%]": 188}
{"molecule": "O=C(O)c1cc2ccc(CNc3ccc(C(F)(F)F)cn3)cc2o1 [Example 112]", "% change@TL7@10 uM [%]": 53}
{"molecule": "CC(C)Oc1ccc(NCc2ccc3c(C(F)(F)F)c(-c4nnn[nH]4)oc3c2)cc1C(F)(F)F [Example 57]", "% change@TL7@10 uM [%]": 76}
{"molecule": "O=C(O)c1cc2ccc(CNc3cc(Cl)c(Cl)c(Cl)c3)cc2o1 [Example 86]", "% change@TL7@10 uM [%]": 381}
{"molecule": "N#Cc1cc(NCc2ccc3cc(-c4nnn[nH]4)oc3c2Cl)ccc1OC(F)F [Example 202]", "% change@TL7@10 uM [%]": 174}
{"molecule": "Fc1cc2cc(-c3nnn[nH]3)oc2cc1CNc1ccc(C(F)(F)F)c(F)c1 [Example 203]", "% change@TL7@10 uM [%]": 136}
{"molecule": "Fc1cc2cc(-c3nnn[nH]3)oc2cc1CNc1ccc(Cl)c(C(F)(F)F)c1 [Example 150]", "% change@TL7@10 uM [%]": 218}
{"molecule": "O=C(O)c1cc2ccc(CNc3cc(Cl)c(F)c(C(F)(F)F)c3)cc2o1 [Example 110]", "% change@TL7@10 uM [%]": 76}
{"molecule": "Fc1c(Cl)cc(NCc2cc3oc(-c4nnn[nH]4)cc3cc2Cl)cc1C(F)(F)F [Example 201]", "% change@TL7@10 uM [%]": 225}
{"molecule": "CCCc1ccc(NCc2ccc3cc(-c4nnn[nH]4)oc3c2)cc1C(F)(F)F [Example 16]", "% change@TL7@10 uM [%]": 521}
{"molecule": "CCCc1ccc(NCc2ccc3c(C(F)(F)F)c(C(=O)O)oc3c2)cc1C(F)(F)F [Example 111]", "% change@TL7@10 uM [%]": 65}
{"molecule": "FC(F)(F)Oc1ccc(NCc2cc3oc(-c4nnn[nH]4)cc3cc2Cl)cc1Br [Example 36]", "% change@TL7@10 uM [%]": 174}
{"molecule": "N#CCOc1ccc(NCc2cc3oc(-c4nnn[nH]4)cc3cc2Cl)cc1C(F)(F)F [Example 29]", "% change@TL7@10 uM [%]": 258}
{"molecule": "CCCc1ccc(NCc2ccc3oc(C(=O)O)cc3c2)cc1C(F)(F)F [Example 122]", "% change@TL7@10 uM [%]": 184}
